# IC50 per entry
test: Displacement of [3H]-BTX-B from neuronal voltage-gated sodium channel binding site 2 in rat hippocampal neurons; type: tissue-based, Hippocampus

molecule: CC(C)c1cc(CCCCC(O)(C(N)=O)C(F)(F)F)cc(C(C)C)c1O (configuration not stated)
IC50 (µM): 22

molecule: CC(C)c1cc(CCCCCCC(O)(C(N)=O)C(F)(F)F)cc(C(C)C)c1O (configuration not stated)
IC50 (µM): 5.7

---

species: Rattus norvegicus; experiment: Displacement of [3H]-BTX-B from neuronal voltage-gated sodium channel binding site 2 in rat hippocampal neurons at 40 uM; type: tissue-based; details: Hippocampus
propertyMeasured: Activity (%)

compound: CC(C)c1cc(C2(C(F)(F)F)NC(=O)NC2=O)cc(C(C)C)c1O (stereo unspecified)
reported: 55.1
--
compound: CC(C)c1cc(CCCCC(O)(C(N)=O)C(F)(F)F)cc(C(C)C)c1O (stereo unspecified)
reported: 67.1
--
compound: CC(C)c1cc(CCCCCCC(O)(C(N)=O)C(F)(F)F)cc(C(C)C)c1O (stereo unspecified)
reported: 71.4
--
compound: CC(C)c1cccc(C(C)C)c1O
reported: 16.6
--
compound: NC(=O)C(O)(c1ccccc1)C(F)(F)F (stereo unspecified)
reported: 6.8
--
compound: CC(C)c1cc(C(O)(C(N)=O)C(F)(F)F)cc(C(C)C)c1O (stereo unspecified)
reported: 24.5
